Tested system: human RORγt ligand binding domain (RORγt LBD) (Homo sapiens (Human), UniProt P51449)
Sequence (P51449 other isoform, or with tags, fused parts or gaps): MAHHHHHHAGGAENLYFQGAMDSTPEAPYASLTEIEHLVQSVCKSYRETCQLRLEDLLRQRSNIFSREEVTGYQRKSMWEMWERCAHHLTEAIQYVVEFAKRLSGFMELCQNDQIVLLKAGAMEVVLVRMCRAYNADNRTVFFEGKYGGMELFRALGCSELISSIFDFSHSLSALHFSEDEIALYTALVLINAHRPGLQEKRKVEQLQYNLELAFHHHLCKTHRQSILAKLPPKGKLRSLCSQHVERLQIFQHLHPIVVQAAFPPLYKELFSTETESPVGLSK
Assay explanation: RORγt ThermoFluor assay (thermal shift binding affinity)
Measurement context: estimated from thermal shift
Quantity name: Kd (µM)

Compound | Unit abbreviation | Assay result
CCc1nc2ccc(C(O)(c3cnnn3C)C3CN(C(=O)OC(C)(C)C)C3)cc2c(Cl)c1Cc1ccc(C(F)(F)F)cc1 (stereo not shown) [Example 89] | µM | 0.00077

A. COc1nc2ccc(C(O)(c3cnnn3C)C3CN(C(C)=O)C3)cc2c(Cl)c1Cc1ccc(C(F)(F)F)cc1 (single isomer, unassigned) [Example 97C]
B. COc1nc2ccc(C(O)(c3ccc(C(F)(F)F)nc3)c3cncn3C)cc2c(Cl)c1Cc1ccc(C(F)(F)F)nc1 (stereo not shown) [Example 94A]
C. COc1nc2ccc(C(O)(c3cnnn3C)c3cnc(C)n3C)cc2c(C#N)c1Cc1ccc(C(F)(F)F)cc1 (single isomer, unassigned) [Example 81C]
D. COc1nc2ccc(C(N)(c3ccc(C)nc3C)c3cnnn3C)cc2c(Cl)c1Cc1ccc(C(F)(F)F)cc1 (single isomer, unassigned) [Example 87B]
E. COc1nc2ccc(C(O)(c3ccc(Cl)cc3)c3cncn3C)cc2c(Cl)c1Cc1cc2ccccc2s1 (single isomer, unassigned) [Example 36B]
Input line: # rank by Kd, ascending (min first) Form field (ranking): labels in requested order.
Output line: C, A, B, E, D

----------
System: IL-17 production by CD4 T cells
Assay explanation: Human Th17 assay (IL-17 production by CD4 T cells under Th17 differentiation)
Type: cell-based
Measurement context: Homo sapiens, CD4+ T, 72 h, human CD4+ T cells, IL-17 after 3 days; read-out: Human Th17 Assay, IC50 μM
Quantity name: IC50 (µM)

Compound | IC50, µM
OC(c1cccnc1)(c1cccc(Cl)c1)c1ccc2nc(Cl)c(Cc3ccc(-n4cccn4)cc3)c(Cl)c2c1 (centres unmarked) [Example 5] | 0.066

A. Cn1cncc1C(O)(c1ccc(Cl)cc1)c1ccc2nc(Cl)c(Cc3ccc(-n4cccn4)cc3)c(Cl)c2c1 (centres unmarked) [Example 11]
B. COc1nc2ccc(C(O)(c3ccc(Cl)cc3)c3cncn3C)cc2c(OC)c1Cc1ccc(-n2cccn2)cc1 (centres unmarked) [Example 34]
C. COc1nc2ccc(C(O)(c3ccc(C(F)(F)F)nc3)c3cncn3C)cc2c(Cl)c1Cc1cc2ccccc2s1 (centres unmarked) [Example 37A]
D. OC(c1cccnc1)(c1cccc(F)c1)c1ccc2nc(Cl)c(Cc3ccc(-n4cccn4)cc3)c(Cl)c2c1 (centres unmarked) [Example 48]
Input line: Could you please sort these 4 entries by IC50 from high to low? Form field (ranking): labels in requested order.
Output line: B, A, C, D

a. COc1nc2ccc(C(O)(c3ccc(Cl)cc3)c3cncn3C)cc2c(Cl)c1Cc1ccc(S(C)(=O)=O)cc1 (centres unmarked) [Example 31]
b. Cn1cncc1C(O)(c1ccc(Cl)cc1)c1ccc2nc(Cl)c(Cc3ccccc3)c(Cl)c2c1 (centres unmarked) [Example 1]
c. COc1ccc(C(O)(c2ccc3nc(OC)c(Cc4ccc(-n5cccn5)cc4)c(Cl)c3c2)c2cncs2)cn1 (single isomer, unassigned) [Example 20B]
d. OC(c1ccc(Cl)cc1)(c1cccnc1)c1ccc2nc(Cl)c(Cc3ccc(-n4cccn4)cc3)c(Cl)c2c1 (centres unmarked) [Example 45]
e. COc1nc2ccc(C(O)(c3ccc(C)nc3C)c3cnnn3C)cc2c(C#N)c1Cc1ccc(C(F)(F)F)cc1 (single isomer, unassigned) [Example 78C]
Input line: Could you please sort these 5 entries by IC50 from high to low? Form field (ranking): labels in requested order.
Output line: b, a, d, c, e
(b: 0.59 µM, a: 0.28 µM, d: 0.1 µM, c: 0.039 µM, e: 0.004 µM)

a. CS(=O)(=O)c1ccc(Cc2c(Cl)nc3ccc(C(O)(c4cccnc4)c4cccc(Cl)c4)cc3c2Cl)cc1 (centres unmarked) [Example 8]
b. CCN(CC)c1nc2ccc(C(O)(c3ccc(Cl)cc3)c3cncn3C)cc2c(Cl)c1Cc1ccc(-n2cccn2)cc1 (single isomer, unassigned) [Example 75C]
Input line: Input pair: a , b . Output: entry with lower IC50. Give the chosen item's label as your response.
Output line: a
(a: 0.079 µM, b: 0.14 µM)

A. CN(C)c1ccc(C(O)(c2ccc3nc(Cl)c(Cc4ccc(-n5cccn5)cc4)c(Cl)c3c2)c2cncn2C)cc1 (centres unmarked) [Example 25]
B. COc1ccc(C(O)(c2cccnc2)c2ccc3nc(Cl)c(Cc4ccc(-n5cccn5)cc4)c(Cl)c3c2)cc1 (centres unmarked) [Example 47]
Input line: Of the two listed items, which has the higher IC50? First: A Second: B Give the chosen item's label as your response.
Output line: A

----------
Tested system: human RORγt LBD (Homo sapiens (Human))
Assay explanation: RORγt reporter assay (GAL4-RORγt LBD luciferase in HEK293T cells)
Assay type: cell-based
Measurement context: HEK293T cells, 24 hours compound treatment
Quantity name: IC50 (µM)

Molecule | Unit abbreviation | Assay result
COc1nc2c(F)cc(C(O)(c3ccc(C(F)(F)F)nc3)c3cncn3C)cc2c(Cl)c1Cc1ccc(-n2cccn2)cc1 (single isomer, unassigned) [Example 58B] | µM | 0.055

1. CCN(CC)c1nc2ccc(C(O)(c3ccc(C(F)(F)F)nc3)c3cncn3C)cc2c(C#N)c1Cc1ccc(-n2cccn2)cc1 (single isomer, unassigned) [Example 74B]
2. CNC(=O)c1nc2ccc(C(O)(c3ccc(F)cc3)c3cncn3C)cc2c(C(F)(F)F)c1Cc1ccccc1 (stereo not drawn) [Example 51]
3. Cn1cncc1C(O)(c1ccc(C(F)(F)F)nc1)c1ccc2nc(N3CCC3)c(Cc3ccc(C(F)(F)F)cc3)c(Cl)c2c1 (racemic) [Example 92A]
Input line: # rank by IC50, ascending (min first) Form field (ranking): labels in requested order.
Output line: 3, 1, 2
(3: 0.029 µM, 1: 0.17 µM, 2: 1.9 µM)

----------
Test system: IL-17 production by CD4 T cells
Assay explanation: Human Th17 assay (IL-17 production by CD4 T cells under Th17 differentiation)
Format: cell-based
Measurement context: Homo sapiens, CD4+ T, 72 h, human CD4+ T cells, IL-17 after 3 days; read-out: Human Th17 Assay, IC50 μM
Quantity name: IC50 (µM)

a. COc1nc2ccc(C(O)(c3ccc(F)cc3)c3cncn3C)cc2c(Cl)c1Cc1ccc(S(C)(=O)=O)cc1 (single isomer, unassigned) [Example 54C]
b. COc1nc2ccc(C(O)(c3cnnn3C)c3cnc(C)n3C)cc2c(C#N)c1Cc1ccc(C(F)(F)F)cc1 (single isomer, unassigned) [Example 81B]
c. COc1nc2c(F)cc(C(O)(c3ccc(C(F)(F)F)nc3)c3cncn3C)cc2c(Cl)c1Cc1ccc(-n2cccn2)cc1 (single isomer, unassigned) [Example 58B]
d. Cn1cncc1C(O)(c1ccc2nc(Cl)c(Cc3ccc(-n4cccn4)cc3)c(Cl)c2c1)c1cncs1 (stereo not drawn) [Example 15]
Input line: Sort the listed entries by IC50, smallest first. Form field (ranking): labels in requested order.
Output line: b, d, a, c

----------
Tested system: human RORγt LBD (Homo sapiens (Human), UniProt P51449)
Sequence (P51449 258-518): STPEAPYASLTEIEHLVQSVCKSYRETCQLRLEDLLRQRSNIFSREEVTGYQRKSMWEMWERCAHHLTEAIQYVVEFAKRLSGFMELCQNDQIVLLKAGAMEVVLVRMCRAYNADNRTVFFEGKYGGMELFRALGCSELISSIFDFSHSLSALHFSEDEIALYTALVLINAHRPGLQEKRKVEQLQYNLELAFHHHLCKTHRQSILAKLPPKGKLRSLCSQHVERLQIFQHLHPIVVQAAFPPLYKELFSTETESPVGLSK
Assay explanation: RORγt reporter assay (GAL4-RORγt LBD luciferase in HEK293T cells)
Format: cell-based
Measurement context: HEK293T cells, 6 μM
Quantity name: RORγt reporter Assay, % inhibition @ 6 μM (%)

Compound | Tested system | Assay result
COc1ccc(C(O)(c2ccc3nc(OC)c(Cc4ccc(-n5cccn5)cc4)c(Cl)c3c2)c2cncs2)cn1 (single isomer, unassigned) [Example 20C] | human RORγt LBD (Homo sapiens (Human), UniProt P51449) | 102
CCN(CC)c1nc2ccc(C(O)(c3ccc(C(F)(F)F)nc3)c3cncn3C)cc2c(C#N)c1Cc1ccc(-n2cccn2)cc1 (single isomer, unassigned) [Example 74C] | human RORγt LBD (Homo sapiens (Human), UniProt P51449) | 90
COc1nc2ccc(C(O)(c3cnnn3C)c3cnc(C)n3C)cc2c(C#N)c1Cc1ccc(C(F)(F)F)cc1 (single isomer, unassigned) [Example 81C] | human RORγt LBD (Homo sapiens (Human), UniProt P51449) | 103
CCN(CC)c1nc2ccc(C(O)(c3ccc(Cl)cc3)c3cncn3C)cc2c(Cl)c1Cc1ccc(-n2cccn2)cc1 (single isomer, unassigned) [Example 75C] | human RORγt LBD (Homo sapiens (Human), UniProt P51449) | 90
COc1nc2ccc(C(O)(c3ccccc3)C3CCN(C(C)=O)CC3)cc2c(Cl)c1Cc1ccc(-n2cccn2)cc1 (single isomer, unassigned) [Example 83C] | human RORγt LBD (Homo sapiens (Human), UniProt P51449) | 103
COc1nc2c(F)cc(C(O)(c3ccc(C(F)(F)F)nc3)c3cncn3C)cc2c(Cl)c1Cc1ccc(-n2cccn2)cc1 (single isomer, unassigned) [Example 58C] | human RORγt LBD (Homo sapiens (Human), UniProt P51449) | 109

Origin of measurements: patent US9290476B2
